Hey, just so you know, these numbers are from paper PMC4336329.

Consider the following compounds and their measured hERG current change (%, negative = inhibition) at 10uM readings.
Molecular target: human ether-à-go-go-related gene (hERG) potassium channel (human);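 further: peak tail current of the secondary pulse compared with the same well before compound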
Sequence (Q12809 whole entry, looked up): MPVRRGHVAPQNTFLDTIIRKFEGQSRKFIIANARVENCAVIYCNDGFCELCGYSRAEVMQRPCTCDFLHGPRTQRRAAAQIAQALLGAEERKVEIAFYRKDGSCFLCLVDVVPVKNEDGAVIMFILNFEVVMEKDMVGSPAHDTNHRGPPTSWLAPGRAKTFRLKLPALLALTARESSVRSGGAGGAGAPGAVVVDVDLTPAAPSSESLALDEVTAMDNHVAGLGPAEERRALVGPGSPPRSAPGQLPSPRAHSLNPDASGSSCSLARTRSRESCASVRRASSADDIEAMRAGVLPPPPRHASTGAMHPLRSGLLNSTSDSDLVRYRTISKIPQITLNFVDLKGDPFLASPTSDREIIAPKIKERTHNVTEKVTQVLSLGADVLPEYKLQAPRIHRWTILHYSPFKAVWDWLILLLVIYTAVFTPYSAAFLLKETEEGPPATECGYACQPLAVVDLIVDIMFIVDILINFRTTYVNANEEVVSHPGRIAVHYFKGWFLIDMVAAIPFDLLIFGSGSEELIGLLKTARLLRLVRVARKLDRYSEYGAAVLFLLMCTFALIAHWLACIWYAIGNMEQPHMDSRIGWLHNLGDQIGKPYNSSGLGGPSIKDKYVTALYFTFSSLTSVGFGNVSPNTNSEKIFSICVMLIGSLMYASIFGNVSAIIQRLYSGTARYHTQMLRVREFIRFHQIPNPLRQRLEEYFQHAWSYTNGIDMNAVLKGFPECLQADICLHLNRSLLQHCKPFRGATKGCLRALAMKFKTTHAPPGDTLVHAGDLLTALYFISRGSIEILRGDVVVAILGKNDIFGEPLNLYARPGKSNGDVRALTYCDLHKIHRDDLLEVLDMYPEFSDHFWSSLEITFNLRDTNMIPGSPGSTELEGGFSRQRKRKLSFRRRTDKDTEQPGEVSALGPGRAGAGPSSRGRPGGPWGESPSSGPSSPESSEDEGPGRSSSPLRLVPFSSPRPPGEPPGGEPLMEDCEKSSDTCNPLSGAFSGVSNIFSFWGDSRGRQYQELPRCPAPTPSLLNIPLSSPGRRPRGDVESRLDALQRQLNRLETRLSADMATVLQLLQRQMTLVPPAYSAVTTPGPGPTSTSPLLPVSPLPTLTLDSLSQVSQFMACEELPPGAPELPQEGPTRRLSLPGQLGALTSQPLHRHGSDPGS
Assay: primary screen, population patch clamp on CHO cells stably expressing hERG; higher = less effect of the substance
Out of some 310,000 compounds screened, about 14,000 (4.5%) showed an effect of 50% or more. Effects have a minus sign here. The sample holds strong results, similar compounds and a random draw of the others, so the mix is not that of the screen.

Illustrative cases are given below, each with its answer.
[
  {
    "Compound": "Cl.Fc1ccc(C(OCCN2CCCC2)c2ccc(Br)cc2)cc1 (centres unmarked)",
    "Test Result": "-75.8%"
  },
  {
    "Compound": "COc1ccc2[nH]c3c(c2c1)CCNC3(C)CCc1ccc(Cl)nc1 (centres unmarked)",
    "Test Result": "-51.6%"
  },
  {
    "Compound": "CCOc1ccccc1C(=O)Nc1cc(Cl)ccc1O",
    "Test Result": "14.7%"
  },
  {
    "Compound": "Cl.Fc1ccc(C(OCCN2CCCC2)c2ccc(F)cc2)cc1",
    "Test Result": "-71.3%"
  },
  {
    "Compound": "Cl.O=C(CCN1CCCCCC1)Nc1ccc(F)cc1",
    "Test Result": "-42.8%"
  },
  {
    "Compound": "CC(C)(C)c1ccccc1OCCN1CCCC1",
    "Test Result": "-24.1%"
  },
  {
    "Compound": "Brc1ccc(CN2CCCCCC2)cc1",
    "Test Result": "-30.3%"
  },
  {
    "Compound": "Cc1ccc(C(=O)COC(=O)c2ccccc2N2C(=O)C3C4CCC(C4)C3C2=O)cc1C (centres unmarked)",
    "Test Result": "-19.2%"
  }
]

INPUT: Report value only: hERG current change (%, negative = inhibition) at 10uM, human ether-à-go-go-related gene (hERG) potassium channel (human), CC1(C)CC(=O)C=C(c2cccc3c2oc2ccccc23)C1
OUTPUT: -2.67%

INPUT: Report value only: hERG current change (%, negative = inhibition) at 10uM, human ether-à-go-go-related gene (hERG) potassium channel (human), CC(OCCN1CCCC1)(c1ccc(F)cc1)c1ccc(F)cc1.Cl
OUTPUT: -63.1%

INPUT: Report value only: hERG current change (%, negative = inhibition) at 10uM, human ether-à-go-go-related gene (hERG) potassium channel (human), Brc1ccccc1OCCN1CCCC1
OUTPUT: -1.74%

---

Biological target: human ether-à-go-go-related gene (hERG) potassium channel (human);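 further: peak tail current of the secondary pulse compared with the same well before compound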
Assay: primary screen, population patch clamp on CHO cells stably expressing hERG; higher = less effect of the substance
The campaign covered roughly 310,000 compounds. About 14,000 (4.5%) showed an effect of 50% or more. Effects have a minus sign here. The list comes from a sample in which strong results are over-represented; it also holds close analogues and randomly drawn compounds.
Observation Type: hERG current change (%, negative = inhibition) at 10uM (%)
Provide the reading as a plain figure in %.

[
  {
    "Compound": "C[N+]1(C)[C@@H]2CC[C@H]1CC(OC(=O)C(c1ccccc1)c1ccccc1)C2.[I-] (some centres unmarked)",
    "Unit Label": "%",
    "Test Result": 18
  },
  {
    "Compound": "CCCCOc1ccc(C(=O)OC2CC(C)N(C)CC2C)cc1 (centres unmarked)",
    "Unit Label": "%",
    "Test Result": -25.4
  },
  {
    "Compound": "CN(C)[C@@H]1CCC[C@H]1OC(=O)C(c1ccccc1)c1ccccc1",
    "Unit Label": "%",
    "Test Result": -65.2
  },
  {
    "Compound": "CCOC(=O)c1c(O)c2ccccc2oc1=O",
    "Unit Label": "%",
    "Test Result": -18.7
  }
]

Turning to the following compound.
INPUT: Report value only: hERG current change (%, negative = inhibition) at 10uM, human ether-à-go-go-related gene (hERG) potassium channel (human), Cc1ccc(-n2c(SCC(=O)N3CCOCC3)nnc2-c2cccnc2)cc1C
OUTPUT: -16.9
